Test system: NCI-H226 lung
method.summary: NCI-60 one-dose screen, 48 h
conditions: 10 µM unless noted
Compounds without any hit were thinned out: in the full panel of roughly 83,000, 20% have a hit. The source made the active and inactive calls. How the source made its calls: active means growth percent below 10; inactive means the rest.
Output constraint: value belongs to Yes for active, No for inactive

C=C(C)[C@@H]1CC[C@]2(C)[C@H](C=CC3=C4C[C@@](C)(CO)CC[C@]4(C)CC[C@]32C)[C@@]1(C)CCCN
No

Query: What did the test return for Cc1nc2sc(C(=O)Nc3cccc4ccccc34)c(N)c2cc1C(=O)c1ccccc1 ?
Reply: No

Query: Now this one: COC(=O)/C(CCC=C(C)C)=C1\[C@@H](OC(C)=O)C[C@@]2(C)[C@H]1C/C(=N/O)[C@H]1[C@@]3(C)CC/C(=N\O)[C@@H](C)[C@@H]3CC[C@@]12C
Reply: No

Query: Item: COC(=O)c1ccc2c(c1)c1c(C)c3cnccc3c(C)c1n2C
Reply: Yes

Query: Queued: COCCn1cc(-c2nc(-c3c[nH]c4ncccc34)cs2)c2ccccc21
Reply: No

Query: And for COc1ccc(N=C2NN=C(c3c[nH]c4ccccc34)CS2)cc1OC ?
Reply: No

Query: Now try Nc1cc(Br)cc2c1[nH]c(=O)c1ccccc12 .
Reply: No

Query: # iterate: Cc1ccc(S(=O)(=O)c2nc(-c3ccccc3)oc2SCC(N)=O)cc1
Reply: No

Query: Input Cc1ccc(C)c2c1sc1nc(N3CCOCC3)c(C#N)c(=O)n12
Reply: No

---

Test system: MALME-3M melanoma
method.summary: NCI-60 one-dose screen, 48 h
conditions: 10 µM unless noted
This is part of a sample that, as a whole, favours compounds with a hit. Of some 83,000 tested, about 20% had one in any assay. Active and inactive are the calls of the source. How the source made its calls: active means growth percent below 10; inactive means the rest.
Log the outcome using a class from Yes (active), No (inactive)

CNCCCNc1nc2ccccc2c2c(=O)c3cc(Cl)ccc3sc12
No

Query: What call does the record list for C=CC(CC(c1ccccc1)(c1ccccc1)c1ccccc1)N(CC)CC (stereo not given) ?
Reply: No

Query: Then CCN(CC)CCN1C(=O)c2c(c3c4ccccc4[nH]c3c3ccc4ccccc4c23)C1=O ?
Reply: Yes

---

Tested on: A498 renal
method.summary: NCI-60 one-dose screen, 48 h (100 = growth as untreated, 0 = no growth, -100 = all killed)
conditions: 10 µM unless noted
The panel holds about 83,000 compounds, 20% with a hit somewhere; the sample as a whole holds those more often. Active and inactive are the calls of the source. How the source made its calls: active means growth percent below 10; inactive means the rest.
assay.endpoint: growth

c1ccc(Cn2cc3c(c2-c2ccccc2)CCc2cnoc2-3)cc1
54% (inactive)

Moving on to another compound below.
Query: Field: growth (A498 renal). Entry: Cc1c2ccccc2nc2cc3c(cc12)[C@H]1CC[C@]2(C)C(=O)CC[C@H]2[C@@H]1CC3
Reply: 104% (inactive)

---

System: KM12 colon
method.summary: NCI-60 one-dose screen, 48 h
conditions: 10 µM unless noted
About 83,000 compounds went through this panel and 20% of them were active in at least one assay; those are over-represented in the sample as a whole. Active and inactive are the calls of the source. Rule for the calls: active = growth percent below 10; inactive = the rest.
Choose the fitting class; nothing outside 1 (active), 0 (inactive) is accepted.

Examples with answers:
C(=C(\C1=NCCN1)n1ccc2ccccc21)/c1ccccc1
0
N#Cc1c(-c2ccc(Cl)cc2)nc(NN=Cc2ccc[nH]2)nc1N1CCOCC1
0
Nc1cc(C(=O)O)cc(-n2c(O)c(C=C3N=c4ccccc4=N3)sc2=S)c1
0
CC1SC(c2ccccc2O)N(NC(=O)CCC(=O)c2nc3ncccc3[nH]2)C1=O (centres undefined)
0

Query: Call for entry [N-]=[N+]=NCC1OC(n2cnc3c(NC(=O)Nc4ccccc4)ncnc32)C2OC(=O)CC12 (centres undefined) :
Reply: 0

Query: And CN1CCOCCN(C)Cc2ccc3ccc(cc3c2)CN(C)CCOCCN(C)Cc2ccc3ccc(cc3c2)C1 ?
Reply: 0

Query: Now the same for CC1(C)N=C(N)N=C(N)N1c1cc(Cl)ccc1Cl
Reply: 0

Query: Try the molecule C=C(C)[C@@H]1CC[C@]2(C(=O)N3CCNCC3)CC[C@]3(C)[C@H](CC[C@@H]4[C@@](C)(CCC(=O)N5CCNCC5)[C@H](C(=C)C)CC[C@]43C)[C@@H]12
Reply: 0

Query: Then this molecule: O=C(NCc1ccc(Cn2c(=O)sn(-c3ccccc3)c2=O)cc1)OCc1ccc2cccc(O)c2n1
Reply: 1

---

Test system: PC-3 prostate
method.summary: NCI-60 one-dose screen, 48 h
conditions: 10 µM unless noted
About 83,000 compounds went through this panel and 20% of them were active in at least one assay; those are over-represented in the sample as a whole. Activity calls are given as the source filed them. Rule for the calls: active = growth percent below 10; inactive = the rest.
Give your call using only these classes: active, inactive

Cc1nc2sc(C(=O)Nc3cccc4ccccc34)c(N)c2cc1C(=O)c1ccccc1
inactive
CN(C)CCCn1c2c(c3ccncc3c1=O)C(=O)c1ccccc1-2
active
COc1ccc(/C=C(/C(=O)N2CCNCC2)c2cc(OC)c(OC)c(OC)c2)cc1O
inactive
CC1(C)CC(=O)C2=C(C1)C(c1ccc(Cl)cc1)n1ncc(C#N)c1N2 (centres undefined)
inactive
COc1ccccc1S(=O)(=O)Nc1ccc2c3c(cc(CCC(=O)NCCCCNc4cccc5c4C(=O)N(C4CCC(=O)NC4=O)C5=O)cc13)C(=O)N2C (centres undefined)
active

Query: Name the outcome recorded for Cc1cc(C)c2c(c1)N(C)c1ncnc(-n3c(C)nc4cc(C)ccc43)c1CC2C (centres undefined) in the assay.
Reply: inactive

Query: // query: COC(=O)/C=C1/SC(=NCc2ccccc2)N(CCc2c[nH]c3ccccc23)C1=O
Reply: inactive

Query: Another: CS(=O)(=O)c1ccc(-c2nc3ccccc3n2CC(=O)N/N=C/c2ccccc2)cc1
Reply: inactive

Query: Next molecule up: c1csc(-c2cn3nc(-c4c[nH]c5ccccc45)sc3n2)c1
Reply: inactive

---

Reported values of growth for individual entries
Tested on: SK-MEL-5 melanoma
method.summary: NCI-60 one-dose screen, 48 h (100 = growth as untreated, 0 = no growth, -100 = all killed)
conditions: 10 µM unless noted
Compounds without any hit were thinned out: in the full panel of roughly 83,000, 20% have a hit.
Respond with the bare value in %.

N#Cc1c(-c2ccccc2)nc2c(c(-c3ccc(Cl)cc3)nn2-c2ccccc2)c1-c1ccc([N+](=O)[O-])cc1
99.2
COCCn1cc(-c2nc(-c3cc4cccnc4n3C)cs2)c2ccccc21
2.5
O=c1c2ccccc2n(C[C@H]2CO2)c2ccccc12
-80.8

Query: Bench note: what growth did CC(C)(Sc1cc(C(C)(C)C)c(O)c(C(C)(C)C)c1)Sc1cc(C(C)(C)C)c(OC(=O)CCC(=O)O)c(C(C)(C)C)c1 show?
Reply: 50.1

Query: Also Cc1[nH]n(-c2cccc(Cl)c2)c(=O)c1/C=C1\C=c2ccccc2=CC1=O , if possible.
Reply: -82.5

Query: Also Oc1nc(NCc2ccccc2)sc1/C=C1\C=Nc2ncccc21 , if possible.
Reply: 70

Query: Also Cc1[nH]c(C(=O)Nc2ccccc2OC2CCN(CCN3CCOCC3)CC2)c(Cl)c1Cl ?
Reply: 87.9

Query: C=C1SC(=Nc2ccccc2Cl)N(C(=O)c2sc3ccccc3c2Cl)C1(C)C , same question.
Reply: 66.7

Query: // query: CCn1cc(Cc2cc(C(=O)Nc3cc4cc(OC)c(OC)cc4c(C)n3)ccc2Cl)cn1
Reply: 13.3

Query: Same for Fc1cc2[nH]ncc2c2c3c(c(-c4cn[nH]c4C(F)(F)F)nc12)CCCC3
Reply: -66.3

Query: One more compound: COc1cc2c(cc1OCCCN1CCN(C(=S)SCCC(C#N)(c3ccccc3)c3ccccc3)CC1)N=C[C@@H]1CCCN1C2=O
Reply: -100

Query: # repeat for O=C(c1c[nH]c2ccccc12)c1n[nH]c(=S)n1-c1ccc([N+](=O)[O-])cc1
Reply: 88.3

Query: Request: C=C1CC[C@@H]2C(C)(C)[C@H](O)CC[C@@]2(C)[C@@H]1COc1ccc2ccc(=O)oc2c1
Reply: 19.1

Query: Follow-up item: Oc1c(I)cc(I)cc1CN(Cc1ccccn1)Cc1ccccn1
Reply: -33.5

Query: Cool, now Cc1cc(Cl)nc(N2CCN(CCNc3ccnc4cc(Cl)ccc34)CC2)n1
Reply: -45.2

Query: Likewise for CCC(C)(C)c1ccc(Nc2ccc(Nc3ccc(C(C)(C)CC)cc3)cc2)cc1 ?
Reply: 99.2

Query: Okay, and Cc1ccc2c(/C=C/C(=O)c3cc(CN4CCOCC4)c(O)c4nc(C)ccc34)cc(CN3CCOCC3)c(O)c2n1 ?
Reply: 4.68

Query: Continue with CS(=O)(=O)Nc1cc(-c2ccc3ncnc(Nc4ccc(OCc5ccccn5)c(Cl)c4)c3c2)cnc1Cl
Reply: -80.8

Query: What would you report for COc1ccc2c(O)c(/C=C3\N=Nc4ncccc43)oc2c1C[C@@H]1CCNC[C@H]1F ?
Reply: 5.56

Query: Can you check O=C(CSc1nnnn1-c1ccccc1)Nc1ccc(Oc2ccccc2)cc1 next?
Reply: 103

Query: // query: Nc1ncnc2c1N=C(c1ccc(Cl)cc1)CC(c1cccc(Nc3ccnc4cc(Cl)ccc34)c1)N2 (stereo not drawn)
Reply: 61.9

Query: Also C#CCOc1cccc(Nc2ncnc3cc(NC(=O)CCl)ccc23)c1 ?
Reply: -93.8

Query: Proceed to C/C(Cc1ccc(Cl)cc1)=C(\c1ccc(OCCN2CCCCCC2)cc1)c1ccc(OC(=O)c2ccccc2)cc1
Reply: 35.3

Query: And [N-]=[N+]=NCC1OC(n2cnc3c(NC(=O)Nc4ccccc4)ncnc32)C2OC(=O)CC12 (stereo not drawn) ?
Reply: 106

Query: Repeat for the following compound: COc1cc(N2C(=O)[C@H](Cl)C2c2ccc(SC)cc2)cc(OC)c1OC (stereo partly drawn)
Reply: -34.3

Cited source: PubChem BioAssay (NCI)
